# measured on: T1, human neuropeptide Y Y2 receptor on SMS-MSN cells (human, UniProt P49146 1-381)
# T1 construct: whole, on cells; also called NPY Y2 receptor; SMS-MSN (Y2)
# T1 sequence (looked up): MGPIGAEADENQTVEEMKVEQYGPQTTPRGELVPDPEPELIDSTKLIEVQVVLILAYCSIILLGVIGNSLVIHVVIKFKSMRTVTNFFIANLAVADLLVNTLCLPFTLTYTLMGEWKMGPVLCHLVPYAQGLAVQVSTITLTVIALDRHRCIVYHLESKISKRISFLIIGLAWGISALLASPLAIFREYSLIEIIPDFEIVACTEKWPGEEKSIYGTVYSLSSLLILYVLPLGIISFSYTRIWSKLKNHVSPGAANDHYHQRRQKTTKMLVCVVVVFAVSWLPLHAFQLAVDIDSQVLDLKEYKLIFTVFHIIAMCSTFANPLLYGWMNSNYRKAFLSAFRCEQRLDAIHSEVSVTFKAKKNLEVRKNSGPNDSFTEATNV
# assay protocol: competition with 30 pM [125I]NPY on SMS-MSN cells (human Y2), filtration
Readings of IC50 for the listed binders
The reply should be a number in nM, with the unit left off.

Illustrative cases are given below, each with its answer.
{"binder": "Ac-ARHALNLLTRQRY-NH2 (also called Ac[Ala24, Ala27, Leu28, Leu31]NPY(24-36)) [Ac[A24,A27,L28,L31]NPY24-36]", "IC50 [nM]": 0.03}
{"binder": "Ac-LAHYLNLLTRQRY-NH2 [Ac[A25,L28,L31]NPY24-36]", "IC50 [nM]": 2}
{"binder": "Ac-LAHYRNLLTRQRY-NH2 [Ac[A25,R28,L31]NPY24-36]", "IC50 [nM]": 0.1}
{"binder": "Ac-LRHALNLLTRQRY-NH2 [Ac[A27,L28,L31]NPY24-36]", "IC50 [nM]": 0.13}
{"binder": "Ac-LRHYLALLTRQRY-NH2 [Ac[L28,A29,L31]NPY24-36]", "IC50 [nM]": 0.05}

Prompt: Please give the documented IC50 of Ac-LRHYLNLATRQRY-NH2 [Ac[L28,A31]NPY24-36]
Response: 0.06

Prompt: Please give the documented IC50 of Ac-LRHYANLLTRQRY-NH2 [Ac[A28,L31]NPY24-36]
Response: 12.6

Prompt: Please give the documented IC50 of Ac-LRHYLNLLARQRY-NH2 [Ac[L28,L31,A32]NPY24-36]
Response: 2.51
